Experiment: enzyme activity assay at 23° C. with purified enzyme
Type: biochemical
attribute measured: enzymatic activity with MCPA greater compared to the wild-type RdpA enzyme

MON-HT15: engineered oxygenase protein, amino acid sequence SEQ ID NO:49 (protein) MHAALTPLTNKYRHIDVQPLTGVLGAEITGVDLREPLDDSTWNEILDAFHTYQVIYFPGQAITNEQHIAFSRRFGPVDPVPILKSIEGYPEVQMIRREANESSRYIGDDWHADSTFLDAPPAAVVMRAIEVPEYGGDTGFLSMYSAWETLSPAMQATIEGLNVVHSATKVFGSLYQATNWRFSNTSVKVMDVDAGDRETVHPLVVTHPVTGRRALYCNQIYCQKIQGMTDAESKSLLQFLYEHATQFDFTCRVRWKKDQVLVWDNLCTMHRAVPDYAGKFRYLTRTTVAGDKPSR	approximately 10 fold
MON-HT13: engineered oxygenase protein, amino acid sequence SEQ ID NO:47 (protein) MHAALTPLTNKYRFIDVQPLTGVLGAEITGVDLREPLDDSTWNEILDAFHTYQVIYFPGQAITNEQHIAFSRRFGPVDPVPILKSIEGYPEVQMIRREANESSRYIGDDWHADSTFLDAPPAAVVMRAIEVPEYGGDTGFLSMYSAWETLSPTMQATIEGLNVVHSATKVFGSLYQATNWRFSGTSVKVMDVDAGDRETVHPLVVTHPVTGRRALYCNQVYCQKIQGMTDAESKSLLQFLYEHATQFDFTCRVRWKKDQVLVWDNLCTMHRAVPDYAGKFRYLTRTTVAGDKPSR	approximately 10 fold
